Provide the reported inhibition at 100 µM of each item.
Target Entity: AKR1C2 (Homo sapiens, UniProt P52895)
Sequence (P52895 whole entry): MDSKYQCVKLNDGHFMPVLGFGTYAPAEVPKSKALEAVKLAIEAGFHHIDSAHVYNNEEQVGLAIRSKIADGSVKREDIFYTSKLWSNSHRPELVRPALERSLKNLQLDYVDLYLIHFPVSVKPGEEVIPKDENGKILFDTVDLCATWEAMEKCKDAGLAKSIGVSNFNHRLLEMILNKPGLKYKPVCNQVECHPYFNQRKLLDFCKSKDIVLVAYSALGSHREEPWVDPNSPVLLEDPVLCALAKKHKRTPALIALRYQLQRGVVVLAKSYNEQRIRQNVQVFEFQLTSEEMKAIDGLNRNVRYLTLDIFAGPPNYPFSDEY
Assay Details: Inhibition assay for recombinant AKR1C2
Type: biochemical
Experimental Parameters: pH 9, read-out: AKR1C2 Inhibition (%) 100 μM
One number for each entry, in %.

Lookup: Please give the documented inhibition at 100 µM of C[C@@]12CC[C@@H]3c4cc(Br)c(O)c(Cl)c4CC[C@H]3[C@@H]1CCC2=O [2_2Br,4Cl]
Found: 99

Quick batch: inhibition at 100 µM for everything below.
1. C[C@@]12CC[C@@H]3c4cc(Cl)c(O)c(Br)c4CC[C@H]3[C@@H]1CCC2=O [2_2Cl,4Br]
2. C[C@@]12CC[C@@H]3c4cc(Cl)c(O)c(I)c4CC[C@H]3[C@@H]1CCC2=O [2_2Cl,4I]
3. C[C@@]12CC[C@@H]3c4cc(I)c(O)c(Cl)c4CC[C@H]3[C@@H]1CCC2=O [2_2I,4Cl]
4. C[C@@]12CC[C@@H]3c4cc(Br)c(O)c(I)c4CC[C@H]3[C@@H]1CCC2=O [2_2Br,4I]
5. C[C@@]12CC[C@@H]3c4cc(I)c(O)c(Br)c4CC[C@H]3[C@@H]1CCC2=O [2_2I,4Br]

Found:
1: 91.9; 2: 89.2; 3: 87.5; 4: 100; 5: 74.7

* * *

Target Entity: UniProt:Q04828
Assay Details: Inhibition assay for recombinant AKR1C1
Format: biochemical
Experimental Parameters: pH 9, read-out: AKR1C1 Inhibition (%) 100 μM
Binary classification by inhibition at 100 µM, with 90% as an inclusive lower bound for criterion met; all other cases are criterion not met.

Lookup: Exam item: decide whether the reported inhibition at 100 µM for C[C@@]12CC[C@@H]3c4cc(Cl)c(O)c(Br)c4CC[C@H]3[C@@H]1CCC2=O [2_2Cl,4Br] is at least 90%.
Found: criterion met

Lookup: Exam item: decide whether the reported inhibition at 100 µM for C[C@@]12CC[C@@H]3c4cc(Cl)c(O)c(I)c4CC[C@H]3[C@@H]1CCC2=O [2_2Cl,4I] is at least 90%.
Found: criterion not met

Lookup: Exam item: decide whether the reported inhibition at 100 µM for C[C@@]12CC[C@@H]3c4cc(I)c(O)c(Br)c4CC[C@H]3[C@@H]1CCC2=O [2_2I,4Br] is at least 90%.
Found: criterion met

Lookup: Exam item: decide whether the reported inhibition at 100 µM for C[C@@]12CC[C@@H]3c4cc(Br)c(O)c(I)c4CC[C@H]3[C@@H]1CCC2=O [2_2Br,4I] is at least 90%.
Found: criterion met

Lookup: Exam item: decide whether the reported inhibition at 100 µM for C[C@@]12CC[C@@H]3c4cc(I)c(O)c(Cl)c4CC[C@H]3[C@@H]1CCC2=O [2_2I,4Cl] is at least 90%.
Found: criterion met

* * *

Target Entity: AKR1C1 (Homo sapiens, UniProt Q04828)
Sequence (Q04828 1-323): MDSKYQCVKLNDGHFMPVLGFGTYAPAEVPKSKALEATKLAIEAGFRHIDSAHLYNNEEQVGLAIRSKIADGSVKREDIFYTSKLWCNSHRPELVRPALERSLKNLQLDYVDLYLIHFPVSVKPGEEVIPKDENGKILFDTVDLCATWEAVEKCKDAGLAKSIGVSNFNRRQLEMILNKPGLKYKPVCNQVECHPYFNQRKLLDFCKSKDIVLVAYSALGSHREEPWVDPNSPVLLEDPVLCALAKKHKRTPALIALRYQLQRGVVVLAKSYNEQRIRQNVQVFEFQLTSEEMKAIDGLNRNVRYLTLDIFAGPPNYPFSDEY
Assay Details: Inhibition assay for recombinant AKR1C1
Format: biochemical
Experimental Parameters: pH 9, read-out: AKR1C1 Inhibition (%) 10 μM
Binary classification by inhibition at 10 µM, with 80% as an inclusive lower bound for fulfilled; all other cases are not fulfilled.

Lookup: Exam item: decide whether the reported inhibition at 10 µM for `C[C@@]12CC[C@@H]3c4cc(Cl)c(O)c(I)c4CC[C@H]3[C@@H]1CCC2=O` is at least 80%.
Found: not fulfilled

Lookup: Exam item: decide whether the reported inhibition at 10 µM for `C[C@@]12CC[C@@H]3c4cc(I)c(O)c(Cl)c4CC[C@H]3[C@@H]1CCC2=O` is at least 80%.
Found: fulfilled

Lookup: Exam item: decide whether the reported inhibition at 10 µM for `C[C@@]12CC[C@@H]3c4cc(I)c(O)c(Br)c4CC[C@H]3[C@@H]1CCC2=O` is at least 80%.
Found: fulfilled

# input for lookup
Lookup: Exam item: decide whether the reported inhibition at 10 µM for `C[C@@]12CC[C@@H]3c4cc(Br)c(O)c(I)c4CC[C@H]3[C@@H]1CCC2=O` is at least 80%.
Found: not fulfilled

* * *

Target Entity: AKR1C2 (Homo sapiens, UniProt P52895)
Assay Details: Inhibition assay for recombinant AKR1C2
Format: biochemical
Experimental Parameters: pH 9, read-out: AKR1C2 Inhibition (%) 10 μM
Attribute Measured: inhibition at 10 µM (%)
Give bare numbers, in %.

// below: answered compounds
Lookup: Please give the documented inhibition at 10 µM of `C[C@@]12CC[C@@H]3c4cc(Br)c(O)c(Cl)c4CC[C@H]3[C@@H]1CCC2=O`
Found: 80

Lookup: Please give the documented inhibition at 10 µM of `C[C@@]12CC[C@@H]3c4cc(Br)c(O)c(I)c4CC[C@H]3[C@@H]1CCC2=O`
Found: 75

Lookup: Please give the documented inhibition at 10 µM of `C[C@@]12CC[C@@H]3c4cc(I)c(O)c(Br)c4CC[C@H]3[C@@H]1CCC2=O`
Found: 59.5

Lookup: Please give the documented inhibition at 10 µM of `C[C@@]12CC[C@@H]3c4cc(Cl)c(O)c(Br)c4CC[C@H]3[C@@H]1CCC2=O`
Found: 65

Lookup: Please give the documented inhibition at 10 µM of `C[C@@]12CC[C@@H]3c4cc(I)c(O)c(Cl)c4CC[C@H]3[C@@H]1CCC2=O`
Found: 73

# input for lookup
Lookup: Please give the documented inhibition at 10 µM of `C[C@@]12CC[C@@H]3c4cc(Cl)c(O)c(I)c4CC[C@H]3[C@@H]1CCC2=O`
Found: 73

* * *

Provide the reported IC50 of each item.
Target Entity: AKR1C2 (Homo sapiens, UniProt P52895)
Assay Details: Inhibition assay for recombinant AKR1C2
Answers are plain numbers, in µM.

// below: answered compounds
Lookup: Please give the documented IC50 of C[C@@]12CC[C@@H]3c4cc(Br)c(O)c(Cl)c4CC[C@H]3[C@@H]1CCC2=O [2_2Br,4Cl]
Found: 3.1

Lookup: Please give the documented IC50 of C[C@@]12CC[C@@H]3c4cc(Cl)c(O)c(I)c4CC[C@H]3[C@@H]1CCC2=O [2_2Cl,4I]
Found: 4.6

Lookup: Please give the documented IC50 of C[C@@]12CC[C@@H]3c4cc(I)c(O)c(Cl)c4CC[C@H]3[C@@H]1CCC2=O [2_2I,4Cl]
Found: 7.1

# input for lookup
Lookup: Please give the documented IC50 of C[C@@]12CC[C@@H]3c4cc(Br)c(O)c(I)c4CC[C@H]3[C@@H]1CCC2=O [2_2Br,4I]
Found: 4.4

* * *

Target Entity: AKR1C1 (Homo sapiens, UniProt Q04828)
Assay Details: Inhibition assay for recombinant AKR1C1
Attribute Measured: pIC50
One number for each entry, as −log10 of the molar value.

// below: answered compounds
Lookup: Provide pIC50, tested on AKR1C1 (Homo sapiens, UniProt Q04828), for `C[C@@]12CC[C@@H]3c4cc(Br)c(O)c(Cl)c4CC[C@H]3[C@@H]1CCC2=O` .
Found: 5.77

Lookup: Provide pIC50, tested on AKR1C1 (Homo sapiens, UniProt Q04828), for `C[C@@]12CC[C@@H]3c4cc(I)c(O)c(Br)c4CC[C@H]3[C@@H]1CCC2=O` .
Found: 6.15

Lookup: Provide pIC50, tested on AKR1C1 (Homo sapiens, UniProt Q04828), for `C[C@@]12CC[C@@H]3c4cc(Cl)c(O)c(Br)c4CC[C@H]3[C@@H]1CCC2=O` .
Found: 5.72

Lookup: Provide pIC50, tested on AKR1C1 (Homo sapiens, UniProt Q04828), for `C[C@@]12CC[C@@H]3c4cc(Br)c(O)c(I)c4CC[C@H]3[C@@H]1CCC2=O` .
Found: 5.14

# input for lookup
Lookup: Provide pIC50, tested on AKR1C1 (Homo sapiens, UniProt Q04828), for `C[C@@]12CC[C@@H]3c4cc(I)c(O)c(Cl)c4CC[C@H]3[C@@H]1CCC2=O` .
Found: 6.10

* * *

Target Entity: AKR1C1 (Homo sapiens)
Assay Details: Inhibition assay for recombinant AKR1C1
Attribute Measured: Ki
Returns: string containing the numeric result and its unit.

Lookup: Please give the documented Ki of C[C@@]12CC[C@@H]3c4cc(I)c(O)c(Br)c4CC[C@H]3[C@@H]1CCC2=O [2_2I,4Br]
Found: 570 nM
